Target: Orexin receptor type 2 (Homo sapiens)
Sequence (O43614 whole entry): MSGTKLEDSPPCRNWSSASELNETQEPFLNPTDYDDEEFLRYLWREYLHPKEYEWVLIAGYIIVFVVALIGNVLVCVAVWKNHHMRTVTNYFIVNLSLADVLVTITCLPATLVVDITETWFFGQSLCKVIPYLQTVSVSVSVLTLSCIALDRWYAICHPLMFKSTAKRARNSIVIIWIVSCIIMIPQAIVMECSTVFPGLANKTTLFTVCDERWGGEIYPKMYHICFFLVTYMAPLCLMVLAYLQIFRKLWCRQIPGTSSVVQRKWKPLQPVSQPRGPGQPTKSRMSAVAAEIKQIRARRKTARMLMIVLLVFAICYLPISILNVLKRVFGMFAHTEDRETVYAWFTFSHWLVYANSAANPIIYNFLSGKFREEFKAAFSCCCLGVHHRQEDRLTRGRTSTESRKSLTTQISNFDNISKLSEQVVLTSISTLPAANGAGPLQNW
Assay: Displacement of [3H]EMPA from human OX2 receptor expressed in human PFSK-1 cells
Type: cell-based
Endpoint name: Ki (µM)
All answers are understood in µM, so give the number only.

// query Need Ki of `COc1cccc(OC)c1C(=O)N1C[C@@H]2CN(c3nc4ccc(Cl)cc4s3)C[C@@H]2C1` , thanks.
// result 1.6

----------
Experiment: Fraction unbound in beagle dog plasma at 0.1 to 10 uM after 6 hrs by equilibrium dialysis method
Assay type: ADME, cell-free, Canis lupus familiaris
Endpoint name: fraction unbound at 6 h
// return just the number, without any unit appended

// query Need fraction unbound at 6 h of `Cc1cc(C)nc(N2C[C@H]3CN(C(=O)c4c(F)cccc4-n4nccn4)C[C@H]3C2)n1` , thanks.
// result 0.096

----------
Test: Chemical stability of the compound assessed as compound remaining at ambient relative humidity at 80 degC after 4 weeks by HPLC analysis
Type: physicochemical
Settings: read-out: Stability
Endpoint name: remaining at 672 h (%)
All answers are understood in %, so give the number only.

// query Need remaining at 672 h of `Cc1cc(C)nc(N2C[C@H]3CN(C(=O)c4c(F)cccc4-n4nccn4)C[C@H]3C2)n1` , thanks.
// result 100

----------
Test: Chemical stability of the compound in pH 2 phosphate buffer assessed as compound remaining at room temperature after 1 week by HPLC analysis
Format: physicochemical
Details: read-out: Stability
Endpoint name: remaining at 168 h (%)
All answers are understood in %, so give the number only.

// query Need remaining at 168 h of `Cc1cc(C)nc(N2C[C@H]3CN(C(=O)c4c(F)cccc4-n4nccn4)C[C@H]3C2)n1` , thanks.
// result 100

----------
Test: Chemical stability of the compound in pH 7.4 phosphate buffer assessed as compound remaining at 60 degC after 4 weeks by HPLC analysis
Type: physicochemical
Settings: read-out: Stability
Endpoint name: remaining at 672 h (%)
All answers are understood in %, so give the number only.

// query Need remaining at 672 h of `Cc1cc(C)nc(N2C[C@H]3CN(C(=O)c4c(F)cccc4-n4nccn4)C[C@H]3C2)n1` , thanks.
// result 99.8

----------
Assay: Clearance in cynomolgus monkey at 10 mg/kg, po and 1 mg/kg, iv
Assay type: ADME, organism-based, Macaca fascicularis
Details: in vivo
Endpoint name: clearance (mL/min/kg)
All answers are understood in mL/min/kg, so give the number only.

// query Need clearance of `Cc1cc(C)nc(N2C[C@H]3CN(C(=O)c4c(F)cccc4-n4nccn4)C[C@H]3C2)n1` , thanks.
// result 16

----------
Assay: Chemical stability of the compound in pH 2 phosphate buffer assessed as compound remaining at 60 degC after 1 week by HPLC analysis
Assay type: physicochemical
Conditions: read-out: Stability
Endpoint name: remaining at 168 h (%)
All answers are understood in %, so give the number only.

// query Need remaining at 168 h of Cc1cc(C)nc(N2C[C@H]3CN(C(=O)c4c(F)cccc4-n4nccn4)C[C@H]3C2)n1 [SELTOREXANT] , thanks.
// result 101

----------
Experiment: Clearance in Sprague-Dawley rat at 10 mg/kg, po and 1 mg/kg, iv
Assay type: ADME, organism-based
Conditions: in vivo
Endpoint name: clearance (mL/min/kg)
All answers are understood in mL/min/kg, so give the number only.

See these solved cases before continuing.
[
  {
    "Smiles input": "Cc1cc(C)nc(N2C[C@H]3CN(C(=O)c4ccccc4-c4ncn[nH]4)C[C@H]3C2)n1",
    "Unit descriptor": "mL/min/kg",
    "clearance": 150
  },
  {
    "Smiles input": "Cc1cc(C)nc(N2C[C@H]3CN(C(=O)c4ccccc4-n4nccn4)C[C@H]3C2)n1",
    "Unit descriptor": "mL/min/kg",
    "clearance": 52.1
  },
  {
    "Smiles input": "Cc1cc(C)nc(N2C[C@H]3CN(C(=O)c4c(F)cccc4-n4nccn4)C[C@H]3C2)n1",
    "Unit descriptor": "mL/min/kg",
    "clearance": 40
  }
]

// query Need clearance of `Cc1cc(C)nc(N2C[C@H]3CN(C(=O)c4cccc(F)c4-n4nccn4)C[C@H]3C2)n1` , thanks.
// result 57

// query Another: `Cc1cc(C)nc(N2C[C@H]3CN(C(=O)c4ccc(F)cc4-n4nccn4)C[C@H]3C2)n1`
// result 65.5

// data source = ChEMBL document CHEMBL3585263
